- Tested System: Enoyl-acyl-carrier protein reductase (Plasmodium falciparum)
- Sequence (Q965D5 whole entry): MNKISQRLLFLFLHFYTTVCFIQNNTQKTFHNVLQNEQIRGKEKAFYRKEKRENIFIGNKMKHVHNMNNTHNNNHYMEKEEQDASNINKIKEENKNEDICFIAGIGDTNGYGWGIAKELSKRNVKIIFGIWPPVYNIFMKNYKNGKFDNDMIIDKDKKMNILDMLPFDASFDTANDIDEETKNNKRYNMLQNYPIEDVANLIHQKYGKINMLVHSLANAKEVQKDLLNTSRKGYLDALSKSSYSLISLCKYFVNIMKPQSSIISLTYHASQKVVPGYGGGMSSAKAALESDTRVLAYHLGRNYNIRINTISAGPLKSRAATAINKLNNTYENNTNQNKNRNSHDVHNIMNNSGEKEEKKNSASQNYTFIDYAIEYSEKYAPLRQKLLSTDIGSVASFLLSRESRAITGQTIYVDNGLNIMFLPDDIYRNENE
Measured Attribute: pKi
Units for pKi: none; it is -log10 of a concentration expressed in mol/L.

O=C(O[C@@H]1Cc2c(O)cc(O)cc2O[C@H]1c1ccc(O)c(O)c1)c1cc(O)c(O)c(O)c1 [(-)-CATECHINGALLATE] :: 7.40

Would you kindly look at the next entry?
*Q* Could you tell me which pKi is on file for O=c1cc(-c2ccc(O)c(O)c2)oc2cc(O)cc(O)c12 ?
*A* 5.68

---

- Tested System: Fatty acid synthase (Plasmodium falciparum, UniProt Q965D7)
- Sequence (Q965D7 whole entry): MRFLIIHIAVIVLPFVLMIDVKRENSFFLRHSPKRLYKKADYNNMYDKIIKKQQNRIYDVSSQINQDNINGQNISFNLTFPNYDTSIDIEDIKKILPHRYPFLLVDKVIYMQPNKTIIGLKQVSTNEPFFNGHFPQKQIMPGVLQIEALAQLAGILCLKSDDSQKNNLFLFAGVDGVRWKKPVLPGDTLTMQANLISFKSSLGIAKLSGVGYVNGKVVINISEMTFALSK
Measured Attribute: Ki (µM)
State the answer as a number, implicitly in µM.

O=c1cc(-c2ccc(O)c(O)c2)oc2cc(O)cc(O)c12 :: 11.5

Would you kindly look at the next entry?
*Q* Could you tell me which Ki is on file for O=C(O[C@@H]1Cc2c(O)cc(O)cc2O[C@H]1c1ccc(O)c(O)c1)c1cc(O)c(O)c(O)c1 [(-)-CATECHINGALLATE] ?
*A* 2.8

---

- System: Plasmodium falciparum
- Method: Antiplasmodial activity against chloroquine-sensitive Plasmodium falciparum NF54
- Format: functional, organism-based
Recorded measurements of IC50, one per entry
State the answer as a number, implicitly in µM.

O=c1cc(-c2ccccc2)oc2cccc(O)c12 [5-HYDROXYFLAVONE] :: 65.9

*Q* Could you tell me which IC50 is on file for O=C(O[C@@H]1Cc2c(O)cc(O)cc2O[C@@H]1c1cc(O)c(O)c(O)c1)c1cc(O)c(O)c(O)c1 [EPIGALOCATECHIN GALLATE] ?
*A* 25.5

*Q* Also O=c1c(O)c(-c2cc(O)c(O)c(O)c2)oc2cc(O)cc(O)c12 ?
*A* 57.3

*Q* Also O=c1c(O)c(-c2ccccc2)oc2ccccc12 ?
*A* 24

*Q* Also COc1cc(-c2oc3cc(O)cc(O)c3c(=O)c2O)ccc1O ?
*A* 14.7

*Q* Also COc1cc2c(c(O)c1OC)C(=O)C[C@@H](c1ccc(O)cc1)O2 ?
*A* 8.8

---

- Tested System: 3-oxoacyl-acyl-carrier protein reductase (Plasmodium falciparum, UniProt Q965D6)
- Sequence (Q965D6 whole entry): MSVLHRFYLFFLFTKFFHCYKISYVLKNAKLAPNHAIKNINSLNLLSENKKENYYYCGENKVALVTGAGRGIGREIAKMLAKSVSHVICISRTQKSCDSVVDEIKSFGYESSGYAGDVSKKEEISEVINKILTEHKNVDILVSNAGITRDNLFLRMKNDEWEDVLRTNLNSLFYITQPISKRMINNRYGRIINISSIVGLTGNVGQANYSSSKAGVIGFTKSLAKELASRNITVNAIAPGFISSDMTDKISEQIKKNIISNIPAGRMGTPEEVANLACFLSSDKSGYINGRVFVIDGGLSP
- Method: Inhibition of FabG in presence of acetoacetyl-CoA
Recorded measurements of Ki, one per entry
Respond with the figure and its unit, in that order.

O=C(O[C@@H]1Cc2c(O)cc(O)cc2O[C@H]1c1ccc(O)c(O)c1)c1cc(O)c(O)c(O)c1 [(-)-CATECHINGALLATE] :: 6.4 µM

Would you kindly look at the next entry?
*Q* Could you tell me which Ki is on file for O=c1cc(-c2ccc(O)c(O)c2)oc2cc(O)cc(O)c12 [LUTEOLIN] ?
*A* 1.8 µM
